Target: T1, MBP-53BP1-Tudor protein (residues 1484-1603) (UniProt Q12888 1484-1603)
T1 construct: range 1484-1603; also called MBP-Tudor fusion of 53BP1; not shown: MBP fusion partner
T1 sequence (Q12888 1484-1603): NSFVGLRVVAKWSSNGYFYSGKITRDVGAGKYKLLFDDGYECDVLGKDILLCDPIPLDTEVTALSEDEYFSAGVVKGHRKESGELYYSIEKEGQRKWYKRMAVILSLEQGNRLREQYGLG
Experiment: pulldown competition on MBP-53BP1-Tudor; competitor GST-UbvG08; immunoblot
Square brackets hold non-standard residues; d marks the D form. Ends that are not written are not given here. * marks the point of attachment. Biotin = O=C1N[C@H]2[C@H](CS[C@H]2CCCCC(=O)*)N1; Lys(Me2) = CN(C)CCCC[C@H](N)C(=O)O
test readout: IC50

Q: Fill in the blank: the reported IC50 of {Biotin-Mini‑PEG}-YGKGGAKRHR[Lys(Me2)]VLRD (Synthetic peptide (BioBasic Canada Inc.); also called H4K20me2 peptide) [biotin-labeled peptide derived from histone H4K20me2] is ____.
A: 100 to 300 µM
